- target under test: Human DYRK1A (Homo sapiens, UniProt Q13627)
- Construct: purchased Invitrogen PV3997
- method notes: DYRK1A Kinase TR-FRET (IMAP-Tb) Assay
- Type: biochemical
- conditions used: TR-FRET (IMAP-Tb); ATP 70 μM; 37° C. 60 minutes; read-out: Enzyme IC50 (μM) DYRK1A
Counter-ions that a name gives are not always drawn.
measurement name: log10 IC50 (log10 of the value in µM)
For clarity, the numbers are log10 values of IC50 expressed in µM.

- compound: "C[C@@H](NC(=O)c1ccc(Cl)c(NC(=O)c2cc3cnc(N4CCOCC4)nc3[nH]c2=O)c1)c1ccccc1"
  measurement name: "log10 IC50"
  measured value: -0.72
- compound: "NC1CCN(c2ncc3cc(C(=O)Nc4cc(C(=O)NCc5cccc(Cl)c5)ccc4Cl)c(=O)[nH]c3n2)CC1"
  measurement name: "log10 IC50"
  measured value: -1.35
- compound: "COc1ncc2cc(C(=O)Nc3cc(C(=O)O)ccc3Cl)c(=O)[nH]c2n1"
  measurement name: "log10 IC50"
  measured value: -0.22
- compound: "NCC(NC(=O)c1ccc(Cl)c(NC(=O)c2cc3cncnc3[nH]c2=O)c1)c1ccccc1 (stereo not shown) [Example 151, hydrochloride]"
  measurement name: "log10 IC50"
  measured value: -1.21
- compound: "CN1CCN(CCCNc2ncc3cc(C(=O)Nc4cc(C(=O)NC(CN)c5ccccc5)ccc4Cl)c(=O)[nH]c3n2)CC1 (stereo not shown) [Example 123, hydrochloride]"
  measurement name: "log10 IC50"
  measured value: -2.17

Specify measured log10 IC50 for COc1ncc2cc(C(=O)Nc3cc(C(=O)OCc4ccccc4)ccc3C)c(=O)[nH]c2n1 . -0.49

Specify measured log10 IC50 for COc1ncc2cc(C(=O)Nc3cc(C(=O)NCc4ccc(Cl)cc4)ccc3Cl)c(=O)[nH]c2n1 . 0.06

Specify measured log10 IC50 for O=C(NCc1cccc(F)c1)c1ccc(Cl)c(NC(=O)c2cc3cnc(N4CCOCC4)nc3[nH]c2=O)c1 . -1.34

Specify measured log10 IC50 for CN1CCN(c2ncc3cc(C(=O)Nc4cc(C(=O)NCc5cccc(F)c5)ccc4Cl)c(=O)[nH]c3n2)CC1 . -1.15

Specify measured log10 IC50 for CN1CCN(CCCNc2ncc3cc(C(=O)Nc4cc(C(=O)NCc5cccc(Cl)c5)ccc4Cl)c(=O)[nH]c3n2)CC1 [Example 101] . -1.58

Specify measured log10 IC50 for O=C(NCc1cccc(Cl)c1)c1ccc(Cl)c(NC(=O)c2cc3cnc(N4CCC(O)CC4)nc3[nH]c2=O)c1 . -1.69

Specify measured log10 IC50 for COc1ncc2cc(C(=O)Nc3cc(C(=O)NC(CCN)C4CCCC4)ccc3Cl)c(=O)[nH]c2n1 (stereo not shown) . -0.33

Specify measured log10 IC50 for O=C(NCc1cccc(Cl)c1)c1ccc(Cl)c(NC(=O)c2cc3cnc(NCC(O)CO)nc3[nH]c2=O)c1 (stereo not shown) . -1.71

---

- target under test: Human DYRK1B (Homo sapiens, UniProt Q9Y463)
- Construct: purchased Invitrogen PR8350B (former PV4649)
- Sequence (Q9Y463 whole entry): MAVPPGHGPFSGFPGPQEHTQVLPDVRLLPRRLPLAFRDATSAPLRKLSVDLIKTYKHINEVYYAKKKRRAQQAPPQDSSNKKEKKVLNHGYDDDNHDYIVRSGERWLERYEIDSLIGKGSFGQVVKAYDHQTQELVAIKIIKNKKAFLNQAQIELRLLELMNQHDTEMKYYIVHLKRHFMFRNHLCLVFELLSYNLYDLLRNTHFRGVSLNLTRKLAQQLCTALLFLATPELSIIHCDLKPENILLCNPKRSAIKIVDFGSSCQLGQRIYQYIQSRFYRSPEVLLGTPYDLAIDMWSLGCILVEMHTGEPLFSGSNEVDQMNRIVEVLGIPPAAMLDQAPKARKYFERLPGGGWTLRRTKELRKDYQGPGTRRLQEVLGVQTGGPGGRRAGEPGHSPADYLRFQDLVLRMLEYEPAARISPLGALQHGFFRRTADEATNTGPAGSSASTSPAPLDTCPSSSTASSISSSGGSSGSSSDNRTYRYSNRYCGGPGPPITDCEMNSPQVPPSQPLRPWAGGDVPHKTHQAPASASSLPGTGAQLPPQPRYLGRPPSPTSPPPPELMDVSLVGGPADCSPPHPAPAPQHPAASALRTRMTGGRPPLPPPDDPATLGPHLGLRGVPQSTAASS
- method notes: DYRK1B Kinase TR-FRET (IMAP-Tb) Assay
- Type: biochemical
- conditions used: Enzyme IC50 (μM) DYRK1B, TR-FRET (IMAP-Tb); ATP 70 μM; 37° C. 60 minutes
Counter-ions that a name gives are not always drawn.
Under this convention, rule met denotes IC50 strictly below 0.1 µM and rule not met denotes IC50 at or above 0.1 µM.

These solved cases illustrate the format of a correct answer.
- molecule: "NCCC(NC(=O)c1ccc(Cl)c(NC(=O)c2cc3cnc(N4CCC(N)CC4)nc3[nH]c2=O)c1)c1ccccc1 (stereo not shown) [Example 137, hydrochloride]"
  target under test: "Human DYRK1B (Homo sapiens, UniProt Q9Y463)"
  category: "rule met"
- molecule: "CNC(=O)c1ccc(Cl)c(NC(=O)c2cc3cnc(OC)nc3[nH]c2=O)c1"
  target under test: "Human DYRK1B (Homo sapiens, UniProt Q9Y463)"
  category: "rule not met"
- molecule: "CN1CCN(CCCNc2ncc3cc(C(=O)Nc4cc(C(=O)NC(CCN)c5ccccc5)ccc4Cl)c(=O)[nH]c3n2)CC1 (stereo not shown) [Example 121, hydrochloride]"
  target under test: "Human DYRK1B (Homo sapiens, UniProt Q9Y463)"
  category: "rule met"
- molecule: "COc1ncc2cc(C(=O)Nc3cc(C(=O)NC(CCN)c4cccc(Cl)c4)ccc3Cl)c(=O)[nH]c2n1 (stereo not shown)"
  target under test: "Human DYRK1B (Homo sapiens, UniProt Q9Y463)"
  category: "rule met"
- molecule: "COc1ncc2cc(C(=O)Nc3cc(C(=O)NCc4ccsc4)ccc3Cl)c(=O)[nH]c2n1"
  target under test: "Human DYRK1B (Homo sapiens, UniProt Q9Y463)"
  category: "rule met"

Strictly below 0.1 µM in IC50? COc1ncc2cc(C(=O)Nc3cc(C(=O)NC(CCCN)c4ccccc4)ccc3Cl)c(=O)[nH]c2n1 (stereo not shown) rule met

Strictly below 0.1 µM in IC50? COC(=O)c1ccc(C)c(NC(=O)c2cc3cnc(OC)nc3[nH]c2=O)c1 rule not met
